subject.of.test: interphotoreceptor retinoid-binding protein (IRBP) (Bos taurus, UniProt P12661)
Sequence (P12661 23-1286): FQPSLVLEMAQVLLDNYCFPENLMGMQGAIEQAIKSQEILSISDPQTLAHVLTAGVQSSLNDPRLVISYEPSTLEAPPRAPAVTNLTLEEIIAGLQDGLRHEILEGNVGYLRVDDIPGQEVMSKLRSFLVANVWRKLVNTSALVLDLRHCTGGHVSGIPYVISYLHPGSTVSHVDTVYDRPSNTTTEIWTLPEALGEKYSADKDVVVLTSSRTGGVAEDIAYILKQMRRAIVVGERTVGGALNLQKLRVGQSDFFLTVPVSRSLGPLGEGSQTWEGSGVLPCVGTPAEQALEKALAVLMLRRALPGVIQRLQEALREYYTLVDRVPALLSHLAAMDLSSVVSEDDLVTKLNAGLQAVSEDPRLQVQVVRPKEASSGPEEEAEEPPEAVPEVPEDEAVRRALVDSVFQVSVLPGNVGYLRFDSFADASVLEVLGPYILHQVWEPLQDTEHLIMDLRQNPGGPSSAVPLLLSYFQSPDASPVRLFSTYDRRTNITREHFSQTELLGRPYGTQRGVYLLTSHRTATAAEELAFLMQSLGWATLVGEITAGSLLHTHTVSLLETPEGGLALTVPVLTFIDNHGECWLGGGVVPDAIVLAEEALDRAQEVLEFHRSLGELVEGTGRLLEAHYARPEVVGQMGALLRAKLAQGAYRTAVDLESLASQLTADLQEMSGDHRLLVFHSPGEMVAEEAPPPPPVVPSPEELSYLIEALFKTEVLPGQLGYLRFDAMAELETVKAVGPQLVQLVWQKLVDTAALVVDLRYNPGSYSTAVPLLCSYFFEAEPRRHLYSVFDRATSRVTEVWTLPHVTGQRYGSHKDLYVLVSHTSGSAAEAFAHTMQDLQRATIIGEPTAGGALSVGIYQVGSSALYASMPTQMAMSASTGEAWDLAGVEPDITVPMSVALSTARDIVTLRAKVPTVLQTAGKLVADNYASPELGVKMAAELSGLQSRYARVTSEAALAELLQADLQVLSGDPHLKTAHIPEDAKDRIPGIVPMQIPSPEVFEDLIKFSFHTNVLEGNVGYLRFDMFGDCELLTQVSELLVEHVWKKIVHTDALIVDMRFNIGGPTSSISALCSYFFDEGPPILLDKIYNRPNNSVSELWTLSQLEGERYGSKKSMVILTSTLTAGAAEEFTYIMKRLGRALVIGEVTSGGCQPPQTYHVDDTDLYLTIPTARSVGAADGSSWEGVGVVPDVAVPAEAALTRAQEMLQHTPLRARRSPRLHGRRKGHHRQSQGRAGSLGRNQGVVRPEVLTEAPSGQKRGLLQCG
test: Surface plasmon resonance
Set-up: species or system bovine
experimental.parameters: pH 7.4, read-out: kd, dissociation rate constant
measurement.label: koff (s⁻¹)

Take a look at these entries with their results.
compound	koff / s⁻¹
CCCCCCCCCCCCCCCC(=O)O	0.4
CCCCC/C=C\C/C=C\CCCCCCCC(=O)O	0.26
CC1=C(/C=C/C(C)=C/C=C/C(C)=C/C=C/C=C(C)/C=C/C=C(C)/C=C/C2=C(C)CCCC2(C)C)C(C)(C)CCC1	0.11
CC/C=C\C/C=C\C/C=C\C/C=C\C/C=C\C/C=C\CCC(=O)O	0.2
CCCCCCCC/C=C\CCCCCCCC(=O)O	1.1

1 = CC1=C[C@H](O)CC(C)(C)[C@H]1/C=C/C(C)=C/C=C/C(C)=C/C=C/C=C(C)/C=C/C=C(C)/C=C/C1=C(C)C[C@@H](O)CC1(C)C
2 = CC/C=C\C/C=C\C/C=C\C/C=C\C/C=C\CCCC(=O)O [Eicosapentaenoic acid (EPA), Eicosapentaenoic acid]
Req: Of 1 and 2 , whose reported koff is numerically smaller? API: response body contains the label of the selected item.
Resp: 1

1 = CC1=C(/C=C/C(C)=C/C=C/C(C)=C/C=C/C=C(C)/C=C/C=C(C)/C=C/C2=C(C)C[C@@H](O)CC2(C)C)C(C)(C)C[C@H](O)C1
2 = CCCCCCCCCCCCCCCCCCCC(=O)O
3 = CCCCC/C=C\C/C=C\C/C=C\C/C=C\CCCC(=O)O
4 = CC1=C(/C=C/C(C)=C/C=C/C(C)=C/C(=O)O)C(C)(C)CCC1 [all -trans -retinoic acid]
Req: Please put the entries in order of rising koff. Reply with the item labels sorted in the order that was asked for.
Resp: 1, 4, 3, 2
(1: 0.05 s⁻¹, 4: 0.14 s⁻¹, 3: 0.24 s⁻¹, 2: 2.8 s⁻¹)

I = CC1=C(/C=C/C(C)=C/C=C/C(C)=C/C=C/C=C(C)/C=C/C=C(C)/C=C/C2=C(C)C(=O)[C@@H](O)CC2(C)C)C(C)(C)C[C@H](O)C1=O
II = CCCCCCCCCCCCCCCCCC(=O)O
Req: Of I and II , whose reported koff is numerically smaller? API: response body contains the label of the selected item.
Resp: I
(I: 0.04 s⁻¹, II: 0.23 s⁻¹)
